Test system: urinary bladder
Experiment: Cystometric recordings in conscious rats (urodynamic parameters)
Format: in vivo
Conditions: conscious rat, 30 mg/kg p.o., perfusion started 60 min after administration
Below, each entry is listed alongside its reported % Change BVC (bladder volume capacity).

| MOLECULE | % Change BVC (bladder volume capacity) |
| --- | --- |
| COC(=O)C1=C(C)NC(C)=C(C(=O)OC)C1c1cccc2c(=O)c(C)c(-c3ccccc3)oc12 [i] | +21% |
| CC1=C(C(=O)OCCCl)C(c2cccc3c(=O)c(C)c(-c4ccccc4)oc23)C(C(=O)OC(C)C)=C(C)N1 (stereo not shown) [iii] | +15% |
| CC1=C(C(=O)OCCN(C)Cc2ccccc2)C(c2cccc3c(=O)c(C)c(-c4ccccc4)oc23)C(C(=O)OC(C)C)=C(C)N1 (stereo not shown) [v] | +22% |
| CC1=C(C(=O)OCCN(C)CCC(c2ccccc2)c2ccccc2)C(c2cccc3c(=O)c(C)c(-c4ccccc4)oc23)C(C(=O)OC(C)C)=C(C)N1 (stereo not shown) [vi] | +31% |

###

Test: LD50 acute toxicity in mice, i.p. and p.o. (Weil method)
Conditions: mouse, in vivo, ip, read-out: LD50 i.p.

| MOLECULE | COMPARATOR | LD50 / mg/kg |
| --- | --- | --- |
| CC1=C(C(=O)OCCCl)C(c2cccc3c(=O)c(C)c(-c4ccccc4)oc23)C(C(=O)OC(C)C)=C(C)N1 (stereo not shown) | > | 1000 |
| CC1=C(C(=O)OCCN(C)CCC(c2ccccc2)c2ccccc2)C(c2cccc3c(=O)c(C)c(-c4ccccc4)oc23)C(C(=O)OC(C)C)=C(C)N1 (stereo not shown) | > | 1000 |
| C#CCOC(=O)C1=C(C)NC(C)=C(C(=O)OC)C1c1cccc2c(=O)c(C)c(-c3ccccc3)oc12 (stereo not shown) | = | 597 |
| CC1=C(C(=O)OCCN2CCCCC2)C(c2cccc3c(=O)c(C)c(-c4ccccc4)oc23)C(C(=O)OC(C)C)=C(C)N1 (stereo not shown) | = | 222 |
| COC(=O)C1=C(C)NC(C)=C(C(=O)OC)C1c1cccc2c(=O)c(C)c(-c3ccccc3)oc12 | = | 889 |
| CC1=C(C(=O)OCCN(C)Cc2ccccc2)C(c2cccc3c(=O)c(C)c(-c4ccccc4)oc23)C(C(=O)OC(C)C)=C(C)N1 (stereo not shown) | = | 959 |
| CCOC(=O)C1=C(C)NC(C)=C(C(=O)OC)C1c1cccc2c(=O)c(C)c(-c3ccccc3)oc12 (stereo not shown) | > | 1000 |

###

System: urinary bladder
Test: Cystometric recordings in conscious rats (urodynamic parameters)
Format: in vivo
Details: conscious rat, 30 mg/kg p.o., perfusion started 60 min after administration
Below, each entry is listed alongside its reported % Change MP (micturition pressure).
PROPERTY MEASURED: % Change MP (micturition pressure)

| COMPOUND | TEST TARGET | RECORDED MEASUREMENT |
| --- | --- | --- |
| CC1=C(C(=O)OCCCl)C(c2cccc3c(=O)c(C)c(-c4ccccc4)oc23)C(C(=O)OC(C)C)=C(C)N1 (stereo not shown) | urinary bladder | -1% |
| CC1=C(C(=O)OCCN(C)CCC(c2ccccc2)c2ccccc2)C(c2cccc3c(=O)c(C)c(-c4ccccc4)oc23)C(C(=O)OC(C)C)=C(C)N1 (stereo not shown) | urinary bladder | -1% |
| COC(=O)C1=C(C)NC(C)=C(C(=O)OC)C1c1cccc2c(=O)c(C)c(-c3ccccc3)oc12 | urinary bladder | -19% |
| CC1=C(C(=O)OCCN(C)Cc2ccccc2)C(c2cccc3c(=O)c(C)c(-c4ccccc4)oc23)C(C(=O)OC(C)C)=C(C)N1 (stereo not shown) | urinary bladder | -23% |

Origin of the recorded values: patent US4806534A
